The measured values listed here are drawn from patent US7495027B2.

System Name: UniProtKB P17952
Protocol Description: Inhibitory activity against MurC (E. coli)
Format: biochemical
Details: (E) E. coli enzyme; read-out: MurC IC50 (converted)
// classify: if (IC50 < 50 µM) t else f

- Molecule: "O=C1O/C(=C\\c2cccnc2)C(O)=C1c1ccc(-c2ccccc2)cc1 [Example 101]"
  System Name: "UniProtKB P17952"
  Group Label: "f"
- Molecule: "O=C1O/C(=C\\c2ccc3ccccc3c2)C(O)=C1c1ccc(-c2ccccc2)cc1 [Example 103]"
  System Name: "UniProtKB P17952"
  Group Label: "t"
- Molecule: "O=C1O/C(=C\\c2cc(C(F)(F)F)ccc2F)C(O)=C1c1cccc(-c2ccccc2)c1 [Example 121]"
  System Name: "UniProtKB P17952"
  Group Label: "t"
- Molecule: "O=C1O/C(=C\\C2CCCCC2)C(O)=C1c1ccc(Cl)cc1 [Example 15]"
  System Name: "UniProtKB P17952"
  Group Label: "f"
- Molecule: "O=C1O/C(=C\\c2ccccc2-c2ccc(Cl)cc2)C(O)=C1c1ccc(Cl)cc1 [Example 137]"
  System Name: "UniProtKB P17952"
  Group Label: "t"
- Molecule: "CC(C)(C)c1ccc(-c2ccc(C3=C(O)/C(=C/c4cccc(C(F)(F)F)c4Cl)OC3=O)cc2)cc1 [Example 116]"
  System Name: "UniProtKB P17952"
  Group Label: "f"
- Molecule: "CCOc1ccc(-c2ccc(C3=C(O)/C(=C/c4cccc(C(F)(F)F)c4Cl)OC3=O)cc2)cc1 [Example 117]"
  System Name: "UniProtKB P17952"
  Group Label: "f"

###

System Name: E. coli Uridine-diphosphate-N-acetvimuramoyl: L-alanine lipase, MurC (Escherichia coli)
Sequence (P17952 whole entry): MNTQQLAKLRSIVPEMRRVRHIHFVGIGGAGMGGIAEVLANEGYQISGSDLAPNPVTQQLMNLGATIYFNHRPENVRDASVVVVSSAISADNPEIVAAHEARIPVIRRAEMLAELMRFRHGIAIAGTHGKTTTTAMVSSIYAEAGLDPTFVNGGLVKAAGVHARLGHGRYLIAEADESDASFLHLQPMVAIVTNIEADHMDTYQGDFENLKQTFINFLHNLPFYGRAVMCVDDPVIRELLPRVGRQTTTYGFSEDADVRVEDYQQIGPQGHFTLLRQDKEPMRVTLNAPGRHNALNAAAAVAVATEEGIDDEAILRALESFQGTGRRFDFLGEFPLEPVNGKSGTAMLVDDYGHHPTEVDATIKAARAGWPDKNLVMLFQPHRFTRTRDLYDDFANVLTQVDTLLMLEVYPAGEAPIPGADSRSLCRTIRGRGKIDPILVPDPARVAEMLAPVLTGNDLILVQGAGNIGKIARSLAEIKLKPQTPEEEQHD
Protocol Description: Inhibitory activity against MurC (E. coli)
Type: biochemical
Details: (E) E. coli enzyme
Property Measured: MurC IC50 (µg/mL)

- Compound: "O=C1O/C(=C\\c2ccc(-c3cccc(C(F)(F)F)c3)cc2)C(O)=C1c1cccc(C(F)(F)F)c1"
  Readout Value: 11
- Compound: "Cc1ccc(C=C2OC(=O)C(c3ccc(Cl)cc3)=C2O)s1 (mixture of isomers) [Example 13]"
  Readout Value: 4
- Compound: "O=C1O/C(=C\\c2cccc(-c3cccc(Cl)c3)c2)C(O)=C1c1cccc(Cl)c1"
  Readout Value: 5

###

Recorded melting point, one value per entry.
Property Measured: melting point

- Compound: "Cc1ccc(/C=C2\\OC(=O)C(c3cccc(C(F)(F)F)c3)=C2O)s1 [Example 12]"
  Property Measured: "melting point"
  Readout Value: "249 to 251 °C"
- Compound: "O=C1O/C(=C\\c2ccc(-c3ccccc3)cc2)C(O)=C1c1cc(Cl)cc(Cl)c1 [Example 67]"
  Property Measured: "melting point"
  Readout Value: "279 to 280 °C"
- Compound: "O=C1O/C(=C\\c2ccc3ccccc3c2)C(O)=C1c1cccc2ccccc12 [Example 56]"
  Property Measured: "melting point"
  Readout Value: "235 to 237 °C"
- Compound: "O=C1O/C(=C\\c2cccc3ccccc23)C(O)=C1c1ccc2ccccc2c1 [Example 44]"
  Property Measured: "melting point"
  Readout Value: "205 to 207 °C"
- Compound: "O=C1O/C(=C\\c2cccc3ccccc23)C(O)=C1c1ccc(C(F)(F)F)cc1 [Example 71]"
  Property Measured: "melting point"
  Readout Value: "245 to 247 °C"
- Compound: "O=C1O/C(=C\\c2ccc3ccccc3c2)C(O)=C1c1ccc(Cl)cc1 [Example 54]"
  Property Measured: "melting point"
  Readout Value: "284 to 286 °C"
- Compound: "O=C1O/C(=C\\c2cccnc2)C(O)=C1c1ccc(-c2ccccc2)cc1 [Example 101]"
  Property Measured: "melting point"
  Readout Value: "252 to 255 °C"
- Compound: "O=C1O/C(=C\\C2CCCCC2)C(O)=C1c1ccc(Cl)cc1 [Example 15]"
  Property Measured: "melting point"
  Readout Value: "200 to 205 °C"
- Compound: "O=C1O/C(=C\\c2cccc(C(F)(F)F)c2)C(O)=C1c1cccc(-c2ccccc2)c1 [Example 108]"
  Property Measured: "melting point"
  Readout Value: "210 to 212 °C"

###

Test system: C. elegans
Protocol Description: Efficacy against nematodes (C. elegans motility rating)
Parameters: key: 0: no effect; 7: reduced movement in 24 h; 8: dead in 24 h; 9: dead in 4 h
Details: dose 100 ppm, observations at 4 h and 24 h postimmersion

- Compound: "O=C1O/C(=C\\c2ccc(Cl)cc2)C(O)=C1c1cccc(C(F)(F)F)c1"
  Rating: 9
- Compound: "N#Cc1ccc(C2=C(O)C(=Cc3ccc(Cl)c(Cl)c3)OC2=O)cc1 (mixture of isomers)"
  Rating: 9
- Compound: "CCCOc1ccc(C=C2OC(=O)C(c3ccc(OC(F)(F)F)cc3)=C2O)cc1 (mixture of isomers)"
  Rating: 0
- Compound: "O=C1OC(=Cc2ccc(F)cc2)C(O)=C1c1ccc(F)cc1 (mixture of isomers)"
  Rating: 9
- Compound: "N#Cc1ccc(C=C2OC(=O)C(c3ccc(-c4ccc(C#N)cc4)cc3)=C2O)cc1 (mixture of isomers)"
  Rating: 9
- Compound: "O=C1OC(=Cc2ccc(OCC3CC3)cc2)C(O)=C1c1ccc(Cl)cc1 (mixture of isomers)"
  Rating: 7
- Compound: "O=C1OC(=Cc2ccc(-c3ccccn3)s2)C(O)=C1c1ccc(OC(F)(F)F)cc1 (mixture of isomers)"
  Rating: 9
- Compound: "O=C1OC(=Cc2ccc(Cl)c(Cl)c2)C(O)=C1c1ccc(Cl)cc1 (mixture of isomers)"
  Rating: 9
- Compound: "N#Cc1ccc(C2=C(O)C(=Cc3ccc(Cl)cc3Cl)OC2=O)cc1 (mixture of isomers)"
  Rating: 9
- Compound: "O=C1OC(=Cc2ccc(C(F)(F)F)cc2)C(O)=C1c1cccc(C(F)(F)F)c1 (mixture of isomers)"
  Rating: 9
- Compound: "O=C1OC(=Cc2ccncc2Cl)C(O)=C1c1ccc(OC(F)(F)F)cc1 (mixture of isomers)"
  Rating: 9
- Compound: "O=C1OC(=Cc2ccc(F)cc2)C(O)=C1c1ccc(C(F)(F)F)cc1 (mixture of isomers)"
  Rating: 9
- Compound: "N#Cc1ccc(C=C2OC(=O)C(c3ccc(C(F)(F)F)cc3)=C2O)cc1 (mixture of isomers)"
  Rating: 9
- Compound: "O=C1OC(=Cc2ccncc2)C(O)=C1c1ccc(OC(F)(F)F)cc1 (mixture of isomers)"
  Rating: 0
- Compound: "O=C1O/C(=C\\c2ccc(OCC3CC3)cc2)C(O)=C1c1ccc(Cl)s1"
  Rating: 9
- Compound: "O=C1OC(=Cc2ccc(F)cc2)C(O)=C1c1cccc(Cl)c1 (mixture of isomers)"
  Rating: 9
- Compound: "O=C1OC(=Cc2ccc(-n3cccc3)cc2)C(O)=C1c1ccc(OC(F)(F)F)cc1 (mixture of isomers)"
  Rating: 9
- Compound: "O=C1OC(=Cc2ccc(Cl)cc2)C(O)=C1c1ccc(OC(F)(F)F)cc1 (mixture of isomers)"
  Rating: 9
- Compound: "O=C1OC(=Cc2cnccc2-c2ccc(Cl)cc2)C(O)=C1c1ccc(OC(F)(F)F)cc1 (mixture of isomers)"
  Rating: 9
- Compound: "O=C1OC(=Cc2ncccc2Br)C(O)=C1c1ccc(OC(F)(F)F)cc1 (mixture of isomers)"
  Rating: 0
- Compound: "O=C1OC(=Cc2ccc(C(F)(F)F)cc2)C(O)=C1c1ccc(OC(F)(F)F)cc1 (mixture of isomers)"
  Rating: 9
- Compound: "N#Cc1ccc(C=C2OC(=O)C(c3cccc(C#N)c3)=C2O)cc1 (mixture of isomers)"
  Rating: 9
- Compound: "O=C1OC(=Cc2ccc(Cl)cc2)C(O)=C1c1ccc(-c2ccc(Cl)cc2)cc1 (mixture of isomers)"
  Rating: 9
- Compound: "O=C1OC(=Cc2cc(Cl)cc(Cl)c2)C(O)=C1c1ccc(OC(F)(F)F)cc1 (mixture of isomers)"
  Rating: 9
- Compound: "O=C1OC(=Cc2ccc(-c3ccc(Cl)cc3)cc2)C(O)=C1c1ccc(F)cc1 (mixture of isomers)"
  Rating: 9
- Compound: "O=C1OC(=Cc2ccc(Br)o2)C(O)=C1c1ccc(OC(F)(F)F)cc1 (mixture of isomers)"
  Rating: 9
- Compound: "O=C1OC(=Cc2ccc(C(F)(F)F)cc2)C(O)=C1c1cccs1"
  Rating: 7

###

Tested on: Trichostrongylus columbriformis
Protocol Description: In vivo efficacy against T. colubriformis in infected gerbils
Details: gerbils infected with T. colubriformis; single oral dose of 50 mg/kg by gavage; worm counts four days post-treatment; % mortality as compared to negative control
Grouping by measured Mortality is done with the following cut points: group 1: < 10%; group 2: ≥ 10% and < 40%; group 3: ≥ 40%

- Compound: "O=C1OC(=Cc2cnccc2-c2ccc(OC(F)(F)F)cc2)C(O)=C1c1ccc(OC(F)(F)F)cc1 (mixture of isomers)"
  Group Label: "group 3"
- Compound: "O=C1O/C(=C\\c2ccc(-c3ccccc3)cc2)C(O)=C1c1cc(Cl)cc(Cl)c1 [R=H; R1=3,5-diCl—C6H3; R2=4-biphenyl]"
  Group Label: "group 3"
- Compound: "O=C1OC(=Cc2ccc(Cl)cc2)C(O)=C1c1ccc(F)cc1 (mixture of isomers) [R=H; R1=4-F—C6H4**; R2=4-Cl—C6H4]"
  Group Label: "group 1"
- Compound: "O=C1OC(=Cc2cnccc2-c2ccc(Cl)s2)C(O)=C1c1ccc(OC(F)(F)F)cc1 (mixture of isomers)"
  Group Label: "group 3"
- Compound: "O=C1OC(=Cc2ccc(Cl)c(Cl)c2)C(O)=C1c1ccc(OC(F)(F)F)cc1 (mixture of isomers) [R=H; R1=4-OCF3—C6H4**; R2=3,4-diCl—C6H3]"
  Group Label: "group 3"
- Compound: "N#Cc1cccc(C2=C(O)C(=Cc3ccc(C(F)(F)F)cc3)OC2=O)c1 (mixture of isomers) [R=H; R1=3-CN—C6H4**; R2=4-CF3—C6H4]"
  Group Label: "group 1"
- Compound: "O=C1OC(=Cc2ccc(C(F)(F)F)cc2)C(O)=C1c1cccc(Cl)c1 (mixture of isomers) [R=H; R1=3-Cl—C6H4**; R2=4-CF3—C6H4]"
  Group Label: "group 3"
- Compound: "O=C1O/C(=C\\c2ccc3ccccc3c2)C(O)=C1c1ccc2ccccc2c1 [R=H; R1=2-naphthyl; R2=2-naphthyl]"
  Group Label: "group 2"
- Compound: "O=C1OC(=Cc2cccnc2)C(O)=C1c1ccc(OC(F)(F)F)cc1 (mixture of isomers) [R=H; R1=4-OCF3—C6H4**; R2=pyridine-3-yl]"
  Group Label: "group 1"
- Compound: "Cc1ccc(C2=C(O)/C(=C/c3cccc(C(F)(F)F)c3Cl)OC2=O)cc1C"
  Group Label: "group 2"
- Compound: "O=C1OC(=Cc2ccc(Cl)cc2)C(O)=C1c1ccc(-c2ccc(Cl)cc2)cc1 (mixture of isomers)"
  Group Label: "group 1"
- Compound: "O=C1OC(=Cc2cccs2)C(O)=C1c1ccc(OC(F)(F)F)cc1 (mixture of isomers) [R=H; R1=4-OCF3—C6H4**; R2=thiophen-2-yl]"
  Group Label: "group 1"
- Compound: "C=CCOC1=C(c2ccc(Cl)cc2)C(=O)OC1=Cc1ccc(C#N)cc1 (mixture of isomers)"
  Group Label: "group 1"
- Compound: "N#Cc1ccc(C=C2OC(=O)C(c3ccc(F)cc3)=C2O)cc1 (mixture of isomers) [R=H; R1=4-F—C6H4**; R2=4-CN—C6H4]"
  Group Label: "group 2"
- Compound: "O=C1OC(=Cc2ccc(F)c(F)c2)C(O)=C1c1ccc(OC(F)(F)F)cc1 (mixture of isomers) [R=H; R1=4-OCF3—C6H4**; R2=3,4-diF—C6H3]"
  Group Label: "group 3"
- Compound: "O=C1O/C(=C\\c2ccc(-c3ccccc3)cc2)C(O)=C1c1ccc(Cl)cc1Cl [R=H; R1=2,4-diCl—C6H3; R2=4-biphenyl]"
  Group Label: "group 2"
- Compound: "N#Cc1ccc(C2=C(O)C(=Cc3ccc(Cl)cc3)OC2=O)cc1 [R=H; R1=4-CN—C6H4; R2=4-Cl—C6H4]"
  Group Label: "group 3"
- Compound: "O=C1O/C(=C\\c2cccc(Cl)c2)C(O)=C1c1ccc(Cl)cc1 [R=H; R1=4-Cl—C6H4; R2=3-CI-C6H4]"
  Group Label: "group 2"
- Compound: "O=C1O/C(=C\\c2cc(C(F)(F)F)ccc2F)C(O)=C1c1cccc(-c2ccccc2)c1 [R=H; R1=3-biphenyl; R2=2-F-5-CF3—C6H4]"
  Group Label: "group 2"
- Compound: "O=C1OC(=Cc2ccc3ccccc3c2)C(O)=C1c1cccc2ccccc12 [R=H; R1=1-naphthyl; R2=2-naphthyl]"
  Group Label: "group 2"
- Compound: "O=C1OC(=Cc2ccc(C(F)(F)F)c(F)c2)C(O)=C1c1ccc(OC(F)(F)F)cc1 (mixture of isomers) [R=H; R1=4-OCF3—C6H4**; R2=3-F-4-CF3—C6H3]"
  Group Label: "group 3"
- Compound: "N#Cc1ccc(C=C2OC(=O)C(c3cccc(C#N)c3)=C2O)cc1 (mixture of isomers) [R=H; R1=3-CN—C6H4**; R2=4-CN—C6H4]"
  Group Label: "group 2"
- Compound: "O=C1OC(=Cc2ccc(C(F)(F)F)cc2)C(O)=C1c1ccc(OC(F)(F)F)cc1 (mixture of isomers) [R=H; R1=4-OCF3—C6H4**; R2=4-CF3—C6H4]"
  Group Label: "group 3"
- Compound: "O=C1OC(=Cc2cc(C(F)(F)F)ccc2F)C(O)=C1c1ccc(OC(F)(F)F)cc1 (mixture of isomers) [R=H; R1=4-OCF3—C6H4**; R2=2-F-5-CF3—C6H3]"
  Group Label: "group 2"
- Compound: "COc1ccc(C=C2OC(=O)C(c3ccc(Cl)cc3)=C2O)cc1 [R=H; R1=4-Cl—C6H4; R2=4-OCH3—C6H4]"
  Group Label: "group 1"
